The values you see were collected from patent US8129355B2.

target entity: GAL4 DBD (1-147)-CfEcR(DEF)/VP16AD-βRXREF-LmUSPEF (Choristoneura fumiferana)
protocol text: 27-63 assay: luciferase reporter gene expression in stable CHO cell clone 27-63
conditions used: 27-63 EC50 (μM), CHO clone 27-63, luciferase reporter 48 h after treatment, dose response 8 concentrations 33 μM to 0.01 μM, three-parameter logistic model
measured property: EC50 (µM)
Give bare numbers, in µM.

Which EC50 value belongs to "Cc1cc(C)cc(C(=O)C2(NS(=O)(=O)c3ccc4c(c3)COCO4)CCCCC2)c1" ? 6.53

---

target entity: GAL4 DBD (1-147)-CfEcR(DEF)/VP16AD-βRXREF-LmUSPEF (Choristoneura fumiferana)
Sequence (O77240 191-513): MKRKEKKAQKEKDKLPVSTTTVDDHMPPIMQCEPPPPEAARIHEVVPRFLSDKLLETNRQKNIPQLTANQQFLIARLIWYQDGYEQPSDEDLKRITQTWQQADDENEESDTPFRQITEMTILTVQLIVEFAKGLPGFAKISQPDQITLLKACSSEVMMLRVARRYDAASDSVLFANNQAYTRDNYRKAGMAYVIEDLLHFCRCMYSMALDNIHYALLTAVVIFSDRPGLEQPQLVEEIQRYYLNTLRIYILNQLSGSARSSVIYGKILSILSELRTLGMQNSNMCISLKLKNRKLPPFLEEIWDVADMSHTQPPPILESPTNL
Sequence (P28702 296-455 partner limits assumed): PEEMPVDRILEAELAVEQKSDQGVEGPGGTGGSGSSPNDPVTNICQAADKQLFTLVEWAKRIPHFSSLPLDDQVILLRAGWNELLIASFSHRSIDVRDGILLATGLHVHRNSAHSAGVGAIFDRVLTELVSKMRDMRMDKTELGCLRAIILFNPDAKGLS
protocol text: 27-63 assay: luciferase reporter gene expression in stable CHO cell clone 27-63
conditions used: maximum fold induction at any concentration relative to that of GS-E ligand
measured property: 27-63 Rel Max FI

// below: answered compounds
{"columns": ["compound", "27-63 Rel Max FI"],
 "data": [
  ["COc1cccc(C(=O)NC2(C(=O)c3ccccc3C)CCCCC2)c1C", 0.07],
  ["COc1cccc(C(=O)NC2(C(=O)c3cc(C)cc(C)c3)CCCCC2)c1C", 0.97]
]}

Field: 27-63 Rel Max FI. Fill in for each record below.
1. CCc1c(C(=O)NC2(C(=O)c3cc(C)cc(C)c3)CCCC2)ccc2c1OCCO2
2. COc1cccc(C(=O)NC2(C(=O)c3ccc(C)cc3)CCCCC2)c1C
3. CCc1c(C(=O)NC2(C(=O)c3cc(C)cc(C)c3)CCCCC2)ccc2c1OCCO2
4. COc1cccc(C(=O)NC2(C(=O)c3ccccc3)CCCCC2)c1C
5. CCC(CC)(NC(=O)c1cccc(OC)c1C)C(=O)c1ccccc1

1: 0.82; 2: 0.87; 3: 0.91; 4: 0.84; 5: 0.41

Field: 27-63 Rel Max FI. Fill in for each record below.
1. COc1cccc(C(=O)NC2(C(=O)c3cc(F)c(F)c(OC)c3)CCCCC2)c1C
2. COc1cccc(C(=O)NC2(C(=O)c3cc(C)cc(C)c3)CCOCC2)c1C
3. COc1cccc(C(=O)NC(C)(C)C(=O)c2ccccc2)c1C
4. COc1ccc(C(=O)C2(NC(=O)c3cccc(OC)c3C)CCCCC2)cc1
5. COc1cc(C(=O)C2(NC(=O)c3cccc(OC)c3C)CCCC2)cc(OC)c1C

0.98
0.96
0.00
0.00
0.28

---

target entity: Bombyx mori EcR (VP16 fusion, switch construct CVBE) with 6XEcRE LacZ reporter (Bombyx mori, UniProt P49881)
Construct: expressed in transfected cells; host or cells: Human 293 kidney (HEK-293) cells, retrovirally infected, clone Z3
Sequence (P49881 86-606 limits assumed): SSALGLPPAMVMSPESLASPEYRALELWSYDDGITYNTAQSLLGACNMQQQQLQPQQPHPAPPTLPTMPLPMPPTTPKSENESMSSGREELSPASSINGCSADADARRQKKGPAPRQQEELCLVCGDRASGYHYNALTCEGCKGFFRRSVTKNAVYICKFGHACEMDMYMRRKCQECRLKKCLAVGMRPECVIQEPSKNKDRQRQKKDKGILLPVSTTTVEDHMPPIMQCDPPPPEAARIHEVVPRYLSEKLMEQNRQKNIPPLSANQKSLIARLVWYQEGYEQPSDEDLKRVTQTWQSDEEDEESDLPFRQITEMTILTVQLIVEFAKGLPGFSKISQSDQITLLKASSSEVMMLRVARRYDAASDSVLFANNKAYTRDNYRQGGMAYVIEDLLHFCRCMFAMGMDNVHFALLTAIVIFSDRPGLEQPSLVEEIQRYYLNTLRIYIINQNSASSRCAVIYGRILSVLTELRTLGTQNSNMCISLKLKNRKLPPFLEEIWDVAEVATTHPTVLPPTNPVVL
Sequence (P19793 whole entry partner, the tested form may be a part): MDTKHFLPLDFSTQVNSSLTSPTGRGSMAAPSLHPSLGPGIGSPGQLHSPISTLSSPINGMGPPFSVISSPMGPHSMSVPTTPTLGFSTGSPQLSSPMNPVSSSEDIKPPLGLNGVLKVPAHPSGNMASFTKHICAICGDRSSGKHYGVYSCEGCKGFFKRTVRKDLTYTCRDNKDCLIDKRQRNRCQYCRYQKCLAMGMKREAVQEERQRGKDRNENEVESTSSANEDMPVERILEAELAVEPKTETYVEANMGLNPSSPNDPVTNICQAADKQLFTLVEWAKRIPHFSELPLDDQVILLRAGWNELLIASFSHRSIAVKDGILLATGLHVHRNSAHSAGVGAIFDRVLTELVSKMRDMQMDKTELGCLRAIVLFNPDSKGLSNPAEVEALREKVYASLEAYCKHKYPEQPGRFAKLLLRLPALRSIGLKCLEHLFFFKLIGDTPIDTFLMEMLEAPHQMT
protocol text: Z3 assay: β-galactosidase (LacZ) reporter gene fold induction in stably transformed human 293 kidney cells (clone Z3)
Assay type: cell-based
conditions used: single dose 33 μM; ligand treated / DMSO treated cells
What Fold Induction Average, Z3 Assay (33 μM) was measured for each of the following?
Answers are plain numbers.

// below: answered molecules
{"columns": ["molecule", "measured property", "endpoint result"],
 "data": [
  ["CC(C)(C)C(NC(=O)c1ccc([N+](=O)[O-])cc1)C(=O)c1ccccc1 (stereo not drawn) [Example 98]", "Fold Induction Average, Z3 Assay (33 μM)", 1],
  ["COc1cccc(C(=O)NC(C)(Cc2ccccc2)C(=O)c2cccc(C)c2)c1C (stereo not drawn) [Example 8]", "Fold Induction Average, Z3 Assay (33 μM)", 15],
  ["Cc1c(C(=O)NC2(C(=O)c3ccccc3)CCCC2)oc2ccccc12 [Example 102]", "Fold Induction Average, Z3 Assay (33 μM)", 1]
]}

Field: Fold Induction Average, Z3 Assay (33 μM). Fill in for each record below.
1. COc1cccc(C(=O)NC2(C(=O)c3ccccc3C)CCCC2)c1C [Example 39]
2. COc1cccc(C(=O)NC(C)(C(C)=O)C(C)C)c1C (stereo not drawn) [Example 112]
3. COc1cccc(C(=O)NC2(C(=O)c3cc(C)cc(C)c3)CCN(CC#N)CC2)c1C [Example 159]
4. COc1ccccc1C(=O)C1(NC(=O)c2cccc(OC)c2C)CCCCCC1 [Example 70]

1. 30
2. 1
3. 2
4. 831

Field: Fold Induction Average, Z3 Assay (33 μM). Fill in for each record below.
1. COc1cccc(C(=O)NC(C(=O)c2cccc(C)c2)(c2ccccc2)C(C)C)c1C (stereo not drawn) [Example 57]
2. CC(C)(NC(=O)c1ccccc1)C(=O)c1ccccc1 [Example 104]

[8, 1]

---

target entity: Bombyx mori EcR (VP16 fusion, switch construct CVBE) with 6XEcRE LacZ reporter (Bombyx mori)
Construct: expressed in transfected cells; host or cells: Human 293 kidney (HEK-293) cells, retrovirally infected, clone Z3
protocol text: Z3 assay: β-galactosidase (LacZ) reporter gene fold induction in stably transformed human 293 kidney cells (clone Z3)
Assay type: cell-based
conditions used: single dose 33 μM; ligand treated / DMSO treated cells
measured property: Fold Induction Average, Z3 Assay (33 μM)

Field: Fold Induction Average, Z3 Assay (33 μM). Fill in for each record below.
1. COc1cccc(C(=O)NC2(C(=O)c3ccc(F)c(C)c3)CC2)c1C
2. COc1ccccc1C(=O)NC(C)(C)C(=O)c1cccc(C)c1
3. Cc1c(C(=O)NC2(C(=O)c3ccccc3)CCCC2)ccc2c1OCO2
4. COc1cccc(C(=O)C(NC(=O)c2cccc(OC)c2C)C(C)(C)C)c1 (stereo not shown)

6
1
32
3

---

target entity: GAL4 DBD (1-147)-CfEcR(DEF)/VP16AD-βRXREF-LmUSPEF (Choristoneura fumiferana, UniProt O77240)
protocol text: 27-63 assay: luciferase reporter gene expression in stable CHO cell clone 27-63
conditions used: read-out: 27-63 LC50; average; dose response, three-parameter logistic model
measured property: CC50

// below: answered compounds
{"columns": ["compound", "CC50"],
 "data": [
  ["COc1ccc(C(=O)C2(NC(=O)c3cccc(OC)c3C)CCCCC2)cc1 [Example 46]", "> 33 µM"],
  ["CCC(CC)(NC(=O)c1cccc(OC)c1C)C(=O)c1ccc(F)c(C)c1 [Example 50]", "> 33 µM"],
  ["COc1cccc(C(=O)NC2(C(=O)c3cc(C)cc(C)c3)CCC2)c1C [Example 14]", "~10 µM"]
]}

Which CC50 value belongs to COc1ccccc1C(=O)C(C)(NC(=O)c1cccc(OC)c1C)C(C)C (stereo not shown) [Example 30] ? > 33 µM

---

What CC50 was measured for each of the following?
target entity: Bombyx mori EcR (VP16 fusion, switch construct CVBE) with 6XEcRE LacZ reporter (Bombyx mori)
Construct: expressed in transfected cells; host or cells: Human 293 kidney (HEK-293) cells, retrovirally infected, clone Z3
protocol text: Z3 assay: β-galactosidase (LacZ) reporter gene fold induction in stably transformed human 293 kidney cells (clone Z3)
Format: cell-based
conditions used: read-out: Z3 LC50; average; dose response, three-parameter logistic model

{"columns": ["compound", "endpoint result"],
 "data": [
  ["COc1ccccc1C(=O)C(C)(NC(=O)c1cccc(OC)c1C)C(C)C (stereo not shown) [Example 30]", "~15 µM"],
  ["COc1cccc(C(=O)NC(C)(C(=O)c2ccccc2)C(C)C)c1C (stereo not shown) [Example 34]", "> 33 µM"],
  ["CCc1c(OC)cccc1C(=O)NC1(C(=O)c2ccccc2)CCCC1 [Example 21]", "~15 µM"],
  ["COc1cccc(C(=O)NC2(C(=O)c3ccc(F)cc3)CCCCC2)c1C [Example 60]", "~6 µM"]
]}

Field: CC50. Fill in for each record below.
1. COc1cccc(C(=O)NC2(C(=O)c3cccc(C)c3)CCSCC2)c1C [Example 26]
2. CCc1c(C(=O)NC2(C(=O)c3ccccc3)CCCC2)ccc2c1OCCO2 [Example 22]
3. CCC(CC)(NC(=O)c1cccc(OC)c1C)C(=O)c1cccc(OC)c1 [Example 49]

1. ~15 µM
2. ~10 µM
3. > 33 µM
